target.system: MAGL (Mus musculus)
Construct: Proteomes (mouse brain membrane fraction or cell lysates); from tissue; host or cells: mouse brain membrane fraction (or cell lysates, not specified)
Sequence (O35678 whole entry): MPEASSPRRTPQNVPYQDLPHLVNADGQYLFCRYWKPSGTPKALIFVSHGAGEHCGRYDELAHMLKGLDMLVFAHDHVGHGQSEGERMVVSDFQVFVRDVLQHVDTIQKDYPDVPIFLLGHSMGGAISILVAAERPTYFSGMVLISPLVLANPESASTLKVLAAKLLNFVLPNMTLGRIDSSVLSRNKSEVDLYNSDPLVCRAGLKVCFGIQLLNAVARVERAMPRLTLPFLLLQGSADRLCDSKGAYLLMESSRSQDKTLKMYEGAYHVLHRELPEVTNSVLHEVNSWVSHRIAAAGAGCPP
procedure.text: In vitro competitive activity-based protein profiling (gel-based, FP-Rh or HT-01 probe)
Format: biochemical
experimental.conditions: 10 μM inhibitor
measured.metric: inhibition at 10 µM

# compound.structure, target.system, inhibition at 10 µM
rows = [
    ("O=C(N1CCN(Cc2ccccc2)CC1)n1cccn1", "MAGL (Mus musculus)", "> 75%"),
    ("Cc1cnn(C(=O)NCc2ccc3ccccc3c2)c1", "MAGL (Mus musculus)", "< 25%"),
]

Entry under test: `CCN(Cc1cccc(Cl)c1)C(=O)n1cc(Cl)cn1` . Its inhibition at 10 µM was > 75%

Entry under test: `O=C(N1CCN(Cc2cncnc2)CC1)n1cc(-c2ccccc2)cn1` . Its inhibition at 10 µM was < 25%

Entry under test: `O=C(c1cnn(C(=O)N2CCN(Cc3nccs3)CC2)c1)N1CCCC1` . Its inhibition at 10 µM was < 25%

Entry under test: `O=C(N1CCN(CC2CC2)CC1)n1cc(Cl)cn1` . Its inhibition at 10 µM was > 75%

Entry under test: `CS(=O)(=O)N1CCCN(C(=O)n2cc(Cl)cn2)CC1` . Its inhibition at 10 µM was 25 to 75%

Entry under test: `CC(=O)N1CCCN(C(=O)n2cc(Cl)cn2)CC1` . Its inhibition at 10 µM was < 25%

Entry under test: `N#Cc1cnn(C(=O)N2CCN(Cc3ccc(-c4ccccc4)cc3OCc3ccccc3)CC2)c1` . Its inhibition at 10 µM was > 75%

Entry under test: `COc1ccccc1N1CCN(C(=O)n2cc(C(F)(F)F)cn2)CC1` . Its inhibition at 10 µM was > 75%

The reported numbers originate from patent US10093630B2.
